Tested on: 966289-007-R4-J1-PDC complex spheroid viability
Assay: Anticancer human tumor 966289-007-R4-J1-PDC patient-derived pancreatic adenocarcinoma cell line growth inhibition [RAS]
Conditions: second compound 0.01 µM; first compound 1 µM; active compounds read low
MEASUREMENT TYPE: viability, T/C (%)

• O=C(c1ccc(F)c(F)c1Nc1ccc(I)cc1F)N1CC(O)([C@@H]2CCCCN2)C1 + C=CC(=O)N1CCN(c2nc(OCC3CCCN3C)nc3c(F)c(-c4nc(N)cc(C)c4C(F)(F)F)c(Cl)cc23)C(C)C1 = 40.3
• CCN1CCN(Cc2ccc(Nc3ncc(F)c(-c4cc(F)c5nc(C)n(C(C)C)c5c4)n3)nc2)CC1 + C=CC(=O)N1CCN(c2nc(OCC3CCCN3C)nc3c(F)c(-c4nc(N)cc(C)c4C(F)(F)F)c(Cl)cc23)C(C)C1 = 72.6
• CC(=O)OC12COC1CC(O)C1(C)C(=O)C(O)C3=C(C)C(OC(=O)C(O)C(NC(=O)OC(C)(C)C)c4ccccc4)CC(O)(C(OC(=O)c4ccccc4)C21)C3(C)C (centres undefined) + C=CC(=O)N1CCN(c2nc(OCC3CCCN3C)nc3c(F)c(-c4nc(N)cc(C)c4C(F)(F)F)c(Cl)cc23)C(C)C1 = 19.2
• CC1(O)CCCC1n1c(=O)c(C(F)F)cc2cnc(NC3CCN(S(C)(=O)=O)CC3)nc21 (centres undefined) + C=CC(=O)N1CCN(c2nc(OCC3CCCN3C)nc3c(F)c(-c4nc(N)cc(C)c4C(F)(F)F)c(Cl)cc23)C(C)C1 = 28.2
• C=CC(=O)Nc1cc(Nc2nccc(-c3cn(C)c4ccccc34)n2)c(OC)cc1N(C)CCN(C)C + C=CC(=O)N1CCN(c2nc(OCC3CCCN3C)nc3c(F)c(-c4nc(N)cc(C)c4C(F)(F)F)c(Cl)cc23)C(C)C1 = 71.8
• CC(Nc1ccc2c(c1)OCCn1cc(N3C(=O)OCC3C(F)F)nc1-2)C(N)=O (centres undefined) + C=CC(=O)N1CCN(c2nc(OCC3CCCN3C)nc3c(F)c(-c4nc(N)cc(C)c4C(F)(F)F)c(Cl)cc23)C(C)C1 = 102
• Nc1ccn(C2OC(CO)C(O)C2(F)F)c(=O)n1 (centres undefined) + C=CC(=O)N1CCN(c2nc(OCC3CCCN3C)nc3c(F)c(-c4nc(N)cc(C)c4C(F)(F)F)c(Cl)cc23)C(C)C1 = 1.42
• CC(C)NCC(C(=O)N1CCN(c2ncnc3c2C(C)CC3O)CC1)c1ccc(Cl)cc1 (centres undefined) + C=CC(=O)N1CCN(c2nc(OCC3CCCN3C)nc3c(F)c(-c4nc(N)cc(C)c4C(F)(F)F)c(Cl)cc23)C(C)C1 = 99.5
• Cc1nc(N2CCC3(CC2)COC(C)C3N)c(CO)nc1Sc1ccnc(N)c1Cl (centres undefined) + C=CC(=O)N1CCN(c2nc(OCC3CCCN3C)nc3c(F)c(-c4nc(N)cc(C)c4C(F)(F)F)c(Cl)cc23)C(C)C1 = 94.6

###

Test system: 966289-007-R4-J1-PDC complex spheroid viability
Experiment: Anticancer human tumor 966289-007-R4-J1-PDC cell line growth inhibition [RAS];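 also: spheroids exposed to agents for one week before readout; percent viability relative to DMSO vehicle control wells as 100%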
Conditions: second compound 0.0949 µM; first compound 0.1 µM; active compounds read low
Listing: viability, T/C of selected compounds
MEASUREMENT TYPE: viability, T/C

- CC(C)n1nc(-c2ccc3oc(N)nc3c2)c2c(N)ncnc21 + CCn1c(-c2cc(N3CCN(C)CC3)cnc2C(C)OC)c2c3cc(ccc31)-c1csc(n1)CC(NC(=O)C1CC1C)C(=O)N1CCCC(N1)C(=O)OCC(C)(C)C2: 14.7%
- CC(=O)OC12COC1CC(O)C1(C)C(=O)C(O)C3=C(C)C(OC(=O)C(O)C(NC(=O)OC(C)(C)C)c4ccccc4)CC(O)(C(OC(=O)c4ccccc4)C21)C3(C)C (stereo unspecified) + CCn1c(-c2cc(N3CCN(C)CC3)cnc2C(C)OC)c2c3cc(ccc31)-c1csc(n1)CC(NC(=O)C1CC1C)C(=O)N1CCCC(N1)C(=O)OCC(C)(C)C2: 11.1%
- Nc1ccn(C2OC(CO)C(O)C2(F)F)c(=O)n1 (stereo unspecified) + CCn1c(-c2cc(N3CCN(C)CC3)cnc2C(C)OC)c2c3cc(ccc31)-c1csc(n1)CC(NC(=O)C1CC1C)C(=O)N1CCCC(N1)C(=O)OCC(C)(C)C2: 1.32%
- Cc1nc(N2CCC3(CC2)COC(C)C3N)c(CO)nc1Sc1ccnc(N)c1Cl (stereo unspecified) + CCn1c(-c2cccnc2C(C)OC)c2c3cc(ccc31)N1CCOC(CC(NC(=O)C(C(C)C)N(C)C(=O)C3(F)CCN(C(=O)C#CC(C)(C)N(C)C)CC3)C(=O)N3CCCC(N3)C(=O)OCC(C)(C)C2)C1: 101%
- C=CC(=O)N1CCN(c2nc(OCC3CCCN3C)nc3c(F)c(-c4nc(N)cc(C)c4C(F)(F)F)c(Cl)cc23)C(C)C1 (stereo unspecified) + CCn1c(-c2cc(N3CCN(C)CC3)cnc2C(C)OC)c2c3cc(ccc31)-c1csc(n1)CC(NC(=O)C1CC1C)C(=O)N1CCCC(N1)C(=O)OCC(C)(C)C2: 104%
- CC1(O)CCCC1n1c(=O)c(C(F)F)cc2cnc(NC3CCN(S(C)(=O)=O)CC3)nc21 (stereo unspecified) + CCn1c(-c2cccnc2C(C)OC)c2c3cc(ccc31)N1CCOC(CC(NC(=O)C(C(C)C)N(C)C(=O)C3(F)CCN(C(=O)C#CC(C)(C)N(C)C)CC3)C(=O)N3CCCC(N3)C(=O)OCC(C)(C)C2)C1: 51.8%
